target: Tyro3 (Homo sapiens (Human)); assay: Microfluidic Capillary Electrophoresis (MCE) kinase activity assay, Tyro3; type: biochemical
Sequence (Q06418 41-890): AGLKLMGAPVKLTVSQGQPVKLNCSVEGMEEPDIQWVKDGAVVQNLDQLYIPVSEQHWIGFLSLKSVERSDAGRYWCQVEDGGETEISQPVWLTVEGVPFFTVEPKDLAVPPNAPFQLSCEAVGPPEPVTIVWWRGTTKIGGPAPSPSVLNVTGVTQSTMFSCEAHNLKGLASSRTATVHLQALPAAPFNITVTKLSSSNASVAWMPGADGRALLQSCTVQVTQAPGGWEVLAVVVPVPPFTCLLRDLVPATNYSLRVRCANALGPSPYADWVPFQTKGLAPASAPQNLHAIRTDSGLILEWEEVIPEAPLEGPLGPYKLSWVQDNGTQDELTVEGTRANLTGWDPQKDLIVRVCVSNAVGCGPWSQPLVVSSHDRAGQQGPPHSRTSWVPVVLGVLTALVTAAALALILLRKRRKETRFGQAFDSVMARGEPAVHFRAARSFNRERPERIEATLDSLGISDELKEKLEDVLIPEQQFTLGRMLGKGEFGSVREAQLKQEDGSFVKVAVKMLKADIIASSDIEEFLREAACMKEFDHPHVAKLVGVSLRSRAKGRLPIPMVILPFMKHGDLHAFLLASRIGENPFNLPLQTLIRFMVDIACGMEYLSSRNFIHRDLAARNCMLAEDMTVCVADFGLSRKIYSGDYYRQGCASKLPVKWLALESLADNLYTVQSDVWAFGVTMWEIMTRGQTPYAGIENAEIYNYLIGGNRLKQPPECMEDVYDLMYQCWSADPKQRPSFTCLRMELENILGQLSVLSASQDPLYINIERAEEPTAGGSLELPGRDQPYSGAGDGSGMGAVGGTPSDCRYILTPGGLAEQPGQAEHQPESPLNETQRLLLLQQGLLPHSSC
OBSERVABLE: IC50

INSERT INTO results (smi, observable, result) VALUES
  ('O[C@H]1CC[C@H](Nc2nc(Nc3ccnc(Cl)c3)ncc2C2CCN(c3ccccc3)CC2)CC1', 'IC50', '10 to 100 nM'),
  ('COc1cc(Nc2ncc(C3CCN(C4CCCC4)CC3)c(N[C@H]3CC[C@H](O)CC3)n2)ccn1', 'IC50', '10 to 100 nM'),
  ('CN1CCN(c2cc(Nc3ncc(C4CCNCC4)c(N[C@H]4CC[C@H](O)CC4)n3)ccn2)CC1', 'IC50', '100 to 1000 nM'),
  ('O[C@H]1CC[C@H](Nc2nc(Nc3ccnc(Cl)c3)ncc2C2CCN(Cc3ccccc3)CC2)CC1', 'IC50', '10 to 100 nM'),
  ('COc1cc(Nc2ncc(C3CCN(C4CCCC4)CC3)c(N[C@H]3CC[C@H](N)CC3)n2)ccn1', 'IC50', '10 to 100 nM'),
  ('O[C@H]1CC[C@H](Nc2nc(Nc3ccnc(Cl)c3)ncc2C2CCN(CC3COC3)CC2)CC1', 'IC50', '10 to 100 nM');

If you can, please state the reported IC50 value of CN1CCC(CN2CCC(c3cnc(Nc4ccnc(Cl)c4)nc3N[C@H]3CC[C@H](O)CC3)CC2)CC1 . 10 to 100 nM

Can you check Cc1cc(Nc2ncc(C3CCN(CC4CCCC4)CC3)c(N[C@H]3CC[C@H](O)CC3)n2)cc(C)n1 next? 10 to 100 nM

Can you check N#Cc1cc(Nc2ncc(C3CCN(CC4CCC(F)(F)CC4)CC3)c(N[C@H]3CC[C@H](O)CC3)n2)ccn1 next? 10 to 100 nM

Can you check O[C@H]1CC[C@H](Nc2nc(Nc3ccnc(F)c3)ncc2C2CCNCC2)CC1 next? 10 to 100 nM

Can you check Cc1cc(Nc2ncc(C3CCNCC3)c(N[C@H]3CC[C@H](O)CC3)n2)ccn1 next? 10 to 100 nM

Can you check COc1cc(Nc2ncc(C3CCN(C(=O)C4CCCC4)CC3)c(N[C@H]3CC[C@H](O)CC3)n2)ccn1 next? 10 to 100 nM

* * *

molecular target: Mer (Homo sapiens (Human), UniProt Q12866); assay: Microfluidic Capillary Electrophoresis (MCE) kinase activity assay, Mer; assay type: biochemical
Sequence (Q12866 21-999): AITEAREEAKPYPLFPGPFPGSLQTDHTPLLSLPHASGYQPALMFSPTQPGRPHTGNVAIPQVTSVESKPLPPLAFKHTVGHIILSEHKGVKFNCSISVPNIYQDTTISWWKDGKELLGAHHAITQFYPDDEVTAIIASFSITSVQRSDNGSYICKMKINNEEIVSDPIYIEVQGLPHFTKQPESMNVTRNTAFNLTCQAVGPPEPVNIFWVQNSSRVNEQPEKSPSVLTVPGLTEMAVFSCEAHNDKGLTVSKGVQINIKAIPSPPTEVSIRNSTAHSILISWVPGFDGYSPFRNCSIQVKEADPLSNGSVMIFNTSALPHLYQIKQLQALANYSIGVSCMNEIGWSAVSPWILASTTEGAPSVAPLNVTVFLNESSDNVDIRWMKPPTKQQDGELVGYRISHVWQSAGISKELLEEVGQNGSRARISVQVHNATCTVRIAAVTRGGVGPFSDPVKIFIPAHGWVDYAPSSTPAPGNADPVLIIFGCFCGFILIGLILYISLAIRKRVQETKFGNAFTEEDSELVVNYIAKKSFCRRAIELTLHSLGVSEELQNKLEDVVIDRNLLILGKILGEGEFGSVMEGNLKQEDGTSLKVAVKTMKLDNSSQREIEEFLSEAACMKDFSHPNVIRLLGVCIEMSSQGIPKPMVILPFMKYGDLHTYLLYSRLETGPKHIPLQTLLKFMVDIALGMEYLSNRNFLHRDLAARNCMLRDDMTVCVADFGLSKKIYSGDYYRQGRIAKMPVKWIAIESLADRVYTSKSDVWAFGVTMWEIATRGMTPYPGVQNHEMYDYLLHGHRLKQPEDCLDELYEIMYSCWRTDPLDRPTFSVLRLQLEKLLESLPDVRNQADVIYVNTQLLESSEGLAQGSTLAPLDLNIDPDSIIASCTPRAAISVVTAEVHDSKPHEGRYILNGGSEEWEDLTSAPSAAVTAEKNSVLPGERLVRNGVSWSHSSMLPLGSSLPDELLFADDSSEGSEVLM
OBSERVABLE: IC50

Worked set:
INSERT INTO assay_data (compound, result) VALUES
  ('O[C@H]1CC[C@H](Nc2nc(Nc3ccnc(N4CCCCC4)c3)ncc2C2CCNCC2)CC1 [Compound 45]', '1 to 30 µM'),
  ('O[C@H]1CC[C@H](Nc2nc(Nc3ccnc(C4CC4)c3)ncc2C2CCNCC2)CC1 [Compound 41]', '0.01 to 0.1 µM'),
  ('O[C@H]1CC[C@H](Nc2nc(Nc3ccnc(Cl)c3)ncc2C2CCN(c3ccccc3)CC2)CC1 [Compound 47]', '0.01 to 0.1 µM');

If you can, please state the reported IC50 value of Cc1cc(Nc2ncc(C3CCNCC3)c(N[C@H]3CC[C@H](O)CC3)n2)ccn1 [Compound 8] . 0.01 to 0.1 µM

Can you check NC(=O)c1cc(Nc2ncc(C3CCN(C4CCCC4)CC3)c(N[C@H]3CC[C@H](O)CC3)n2)ccn1 [Compound 14] next? 0.01 to 0.1 µM

Can you check O[C@H]1CC[C@H](Nc2nc(Nc3ccnc(C(F)(F)F)c3)ncc2C2CCN(CC3CCCC3)CC2)CC1 [Compound 17] next? 0.01 to 0.1 µM

Can you check COc1cc(Nc2ncc(C3CCN(C)CC3)c(N[C@H]3CC[C@H](O)CC3)n2)ccn1 [Compound 6] next? 0.01 to 0.1 µM

Can you check CN1CCC(CN2CCC(c3cnc(Nc4ccnc(Cl)c4)nc3N[C@H]3CC[C@H](O)CC3)CC2)CC1 [Compound 29] next? 0.01 to 0.1 µM

Can you check Cc1cc(Nc2ncc(C3CCN(CC4CCCC4)CC3)c(N[C@H]3CC[C@H](O)CC3)n2)cc(C)n1 [Compound 19] next? 0.1 to 1 µM

Can you check O[C@H]1CC[C@H](Nc2nc(Nc3ccnc(N4CCCC4)c3)ncc2C2CCNCC2)CC1 [Compound 43] next? 0.1 to 1 µM

Can you check COc1cc(Nc2ncc(C3CCN(C(=O)C4CCCC4)CC3)c(N[C@H]3CC[C@H](O)CC3)n2)ccn1 [Compound 26] next? 0.01 to 0.1 µM
